# targetOrSystem: Transient receptor potential cation channel subfamily A member 1 (Rattus norvegicus, UniProt Q6RI86)
# Sequence (Q6RI86 whole entry): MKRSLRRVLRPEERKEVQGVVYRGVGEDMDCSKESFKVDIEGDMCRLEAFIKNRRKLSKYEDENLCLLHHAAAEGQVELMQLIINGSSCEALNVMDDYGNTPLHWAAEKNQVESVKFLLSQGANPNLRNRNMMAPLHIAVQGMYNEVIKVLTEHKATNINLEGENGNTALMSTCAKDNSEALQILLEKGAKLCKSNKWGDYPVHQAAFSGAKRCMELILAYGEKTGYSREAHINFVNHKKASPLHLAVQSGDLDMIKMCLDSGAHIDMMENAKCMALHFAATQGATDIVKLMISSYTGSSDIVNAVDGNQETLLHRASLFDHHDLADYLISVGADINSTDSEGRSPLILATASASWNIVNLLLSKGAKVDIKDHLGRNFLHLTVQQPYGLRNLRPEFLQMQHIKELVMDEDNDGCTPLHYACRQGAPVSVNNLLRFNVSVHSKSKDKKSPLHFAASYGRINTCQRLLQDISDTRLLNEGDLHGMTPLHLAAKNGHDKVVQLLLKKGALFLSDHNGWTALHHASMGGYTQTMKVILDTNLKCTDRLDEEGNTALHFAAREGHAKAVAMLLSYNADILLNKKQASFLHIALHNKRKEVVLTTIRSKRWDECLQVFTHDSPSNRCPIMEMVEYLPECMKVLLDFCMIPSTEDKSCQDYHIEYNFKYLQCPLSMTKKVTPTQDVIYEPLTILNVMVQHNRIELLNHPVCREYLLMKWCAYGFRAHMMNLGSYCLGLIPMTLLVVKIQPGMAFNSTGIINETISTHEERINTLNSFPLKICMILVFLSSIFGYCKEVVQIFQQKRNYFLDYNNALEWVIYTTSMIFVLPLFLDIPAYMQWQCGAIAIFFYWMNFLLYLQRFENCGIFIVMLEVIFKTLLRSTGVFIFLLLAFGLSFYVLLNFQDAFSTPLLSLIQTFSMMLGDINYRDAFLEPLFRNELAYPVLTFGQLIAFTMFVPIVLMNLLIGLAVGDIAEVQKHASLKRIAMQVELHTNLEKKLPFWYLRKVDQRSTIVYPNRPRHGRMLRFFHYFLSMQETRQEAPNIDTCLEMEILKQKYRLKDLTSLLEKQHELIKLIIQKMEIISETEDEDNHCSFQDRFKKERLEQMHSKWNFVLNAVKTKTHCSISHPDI
# testDetails: Inhibition of rat TRPA1 expressed in HEK293 cells assessed as reduction in 100 uM allyl isothiocyanate-stimulated increase in intracellular Ca2+ levels
Grouping key: IC50. Bins: A = under 4 µM, B = from 4 µM up to 30 µM, C = 30 µM and over

Consider the following illustrative entries.
[[record]]
structurenotation = "Cc1ccc(C(C)C)c(NC(=O)c2ccc(C(C)(C)C)cc2)c1"
assignedclass = "B"

[[record]]
structurenotation = "COc1ccc(OC(=O)c2cc(C)ccc2C(C)C)cc1"
assignedclass = "A"


Request: Where would `Cc1ccc(C(C)C)c(C(=O)NCCc2c[nH]c3ccc(OCc4ccccc4)cc23)c1` land among the classes by reported IC50?
Result: C

Request: Same for `COc1ccc(C(=O)Nc2cc(C)ccc2C(C)C)cc1`
Result: C

Request: Same for `COc1ccc(C(=O)Oc2cc(C)ccc2C(C)C)cc1`
Result: A

Request: Same for `Cc1ccc(C(C)C)c(C(=O)NCCc2ccccc2)c1`
Result: C

Request: Same for `Cc1ccc(C(C)C)c(C(=O)Oc2ccc(-c3ccccc3)cc2)c1`
Result: B

Request: Same for `Cc1ccc(C(C)C)c(C(=O)Nc2ccc(C(F)(F)F)cc2)c1`
Result: A

Request: Same for `Cc1ccc(C(C)C)c(C(=O)Nc2ccc(Cl)cc2)c1`
Result: B

Request: Same for `COc1ccc(NC(=O)Nc2cc(C)ccc2C(C)C)cc1`
Result: C

Request: Same for `Cc1ccc(C(C)C)c(NC(=O)Nc2ccc(C(C)(C)C)cc2)c1`
Result: B

Request: Same for `Cc1ccc(C(C)C)c(OC(=O)Cc2ccc(-c3ccccc3)cc2)c1`
Result: B
